studySystem: T1, GST-HDA19 (Arabidopsis thaliana, UniProt O22446)
T1 construct: made in house; host or cells: E. coli BL21-CodonPlus (DE3)-RP
T1 sequence (O22446 1-501): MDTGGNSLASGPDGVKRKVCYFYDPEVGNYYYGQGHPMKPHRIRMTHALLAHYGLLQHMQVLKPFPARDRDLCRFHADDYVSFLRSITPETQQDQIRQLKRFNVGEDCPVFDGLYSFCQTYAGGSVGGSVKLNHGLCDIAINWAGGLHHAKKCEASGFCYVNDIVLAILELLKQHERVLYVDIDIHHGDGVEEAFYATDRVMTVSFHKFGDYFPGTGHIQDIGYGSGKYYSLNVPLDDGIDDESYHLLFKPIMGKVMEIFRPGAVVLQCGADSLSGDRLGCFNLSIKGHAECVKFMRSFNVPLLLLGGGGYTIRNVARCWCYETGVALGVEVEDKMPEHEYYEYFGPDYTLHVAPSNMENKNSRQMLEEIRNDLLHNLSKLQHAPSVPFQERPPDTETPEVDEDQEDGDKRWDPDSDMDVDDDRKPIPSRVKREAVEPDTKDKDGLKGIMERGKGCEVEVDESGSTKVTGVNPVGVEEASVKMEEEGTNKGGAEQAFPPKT
assaySummary: GST pulldown affinity assay of bnKCP1 and mutants with GST-HDA19
Type: binding
assaySetup: [35S]Met-labeled in vitro translated protein

| molecule | in vitro binding to GST-HDA19 |
| --- | --- |
| bnKCP1: B. napus KID-containing protein 1, 215 amino acid protein interacting with HDA19 (SEQ ID NO:71) (protein, left off: large carriers) MAGGGPTFSIELSAYGSDLPTDKASGDIPNEEGSGLSRVGSGIWSGRTVDYSSESSSSIGTPGDSEEEDEESEEDNDEEELGLASLRSLEDSLPSKGLSSHYKGKSKSFGNLGEIGSVKEVPKQENPLNKKRRLQIYNKLARKSFYSWQNPKSMPLLPVHEDNDDEEGDDGDLSDEERGGDVLARRPSFKNRALKSMSCFALSDLQEEEEEEEDE | bound |
| ΔbnKCP1^1-80: C-terminal truncated mutant of bnKCP1, residues 1-80, lacking the KID domain (protein) MAGGGPTFSIELSAYGSDLPTDKASGDIPNEEGSGLSRVGSGIWSGRTVDYSSESSSSIGTPGDSEEEDEESEEDNDEEE | no interaction |
| ΔbnKCP1^1-160: C-terminal truncated mutant of bnKCP1, residues 1-160, lacking the KID domain (protein) MAGGGPTFSIELSAYGSDLPTDKASGDIPNEEGSGLSRVGSGIWSGRTVDYSSESSSSIGTPGDSEEEDEESEEDNDEEELGLASLRSLEDSLPSKGLSSHYKGKSKSFGNLGEIGSVKEVPKQENPLNKKRRLQIYNKLARKSFYSWQNPKSMPLLPVH | no interaction |
